Reference source: patent US20190352420A1

- targetOfAssay: T1, cell-bound CD73 (human, UniProt P21589 27-549)
- T1 sequence (looked up): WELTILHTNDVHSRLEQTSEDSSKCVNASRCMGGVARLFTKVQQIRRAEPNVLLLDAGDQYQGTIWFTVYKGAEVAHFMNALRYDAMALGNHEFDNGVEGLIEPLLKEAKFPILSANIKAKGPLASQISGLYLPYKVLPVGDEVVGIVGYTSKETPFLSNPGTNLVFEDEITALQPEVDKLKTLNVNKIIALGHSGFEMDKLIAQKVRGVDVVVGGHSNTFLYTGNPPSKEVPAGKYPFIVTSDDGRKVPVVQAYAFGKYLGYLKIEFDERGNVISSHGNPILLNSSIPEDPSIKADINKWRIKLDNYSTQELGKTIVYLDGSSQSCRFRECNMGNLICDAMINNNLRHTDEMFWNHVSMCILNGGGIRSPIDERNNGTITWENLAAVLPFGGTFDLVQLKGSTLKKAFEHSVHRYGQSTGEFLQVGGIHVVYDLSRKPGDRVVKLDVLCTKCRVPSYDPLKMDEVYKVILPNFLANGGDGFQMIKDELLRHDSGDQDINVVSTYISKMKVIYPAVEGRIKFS
- experimentalProtocol: cell-based or functional assay
Provide the reported IFNγ release [fold change over control], Donor A, 1 nM antibody of each item.
Give just the numeric value; fold need not be written.

Data request, read-out IFNγ release [fold change over control], Donor A, 1 nM antibody, for C3 (antibody, human IgG1, kappa, L234A L235A, V domains shown, Humanized monoclonal antibody; also called anti-CD73 antibody C3) VH: QVQLVQSGAEVKKPGDSVKVSCKASGYTFTTYWMHWVRQAPGQGLEWMGAIYPGLSDTTYSQKFKGKVTMTRDTSTSTVYMKLSSLRSEDTAVYYCARLLDYAMDYWGQGTLVTVSS VL: DIQMTQSPSSLSASVGDRVTITCRASQDIRSYLNWHQQKPGKAPKLLIWYTSRLHSGVPSRFSGSGSGTDYTLTISSLQPEDFATYFCQQGETLPWTFGQGTKLEIKR 19.9

Can you handle C1 (antibody, human IgG1, kappa, L234A L235A, V domains shown, Humanized monoclonal antibody; also called anti-CD73 antibody C1) VH: QVQLVQSGAEVKKPGDSVKVSCKASGYTFTTYWMHWVRQAPGQGLEWMGAIYPGFSDTTYSQKFKGKVTMTRDTSTSTVYMKLSSLRSEDTAVYYCARLLDYAMDYWGQGTLVTVSS VL: DIQMTQSPSSLSASVGDRVTITCRASQDIRSYLNWHQQKPGKAPKLLIWYTSRLHSGVPSRFSGSGSGTDYTLTISSLEPEDFATYFCQQGETLPWTFGQGTKLEIKR next? 20.9

Can you handle C6 (antibody, human IgG1, kappa, L234A L235A, V domains shown, Humanized monoclonal antibody; also called anti-CD73 antibody C6) VH: QVQLVQSGAEVKKPGDSVKVSCKASGYTFTTYWMHWVRQAPGQGLEWMGAIYPGNSDTTYNQKFKGKVTMTRDTSTSTVYMKLSSLRSEDTAVYYCARLLDYAMDYWGQGTLVTVSS VL: DIQMTQSPSSLSASVGDRVTITCRASQDIRNYLNWHQQKPGKAPKLLIWYTSRLHSGVPSRFSGSGSGTDYTLTISSLQPEDFATYFCQQGNTLPWTFGQGTKLEIKR next? 24.3

Can you handle C5 (antibody, human IgG1, kappa, L234A L235A, V domains shown, Humanized monoclonal antibody; also called anti-CD73 antibody C5) VH: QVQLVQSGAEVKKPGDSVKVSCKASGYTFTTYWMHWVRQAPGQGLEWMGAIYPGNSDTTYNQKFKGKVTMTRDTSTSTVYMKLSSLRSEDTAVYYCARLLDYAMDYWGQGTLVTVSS VL: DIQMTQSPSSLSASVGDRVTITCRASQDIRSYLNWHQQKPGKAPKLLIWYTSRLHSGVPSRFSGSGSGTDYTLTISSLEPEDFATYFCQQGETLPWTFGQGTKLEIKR next? 24.5

Can you handle C2 (antibody, human IgG1, kappa, L234A L235A, V domains shown, Humanized monoclonal antibody; also called anti-CD73 antibody C2) VH: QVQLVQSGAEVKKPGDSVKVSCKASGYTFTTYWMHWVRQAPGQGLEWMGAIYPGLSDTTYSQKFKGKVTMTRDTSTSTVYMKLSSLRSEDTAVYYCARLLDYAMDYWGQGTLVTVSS VL: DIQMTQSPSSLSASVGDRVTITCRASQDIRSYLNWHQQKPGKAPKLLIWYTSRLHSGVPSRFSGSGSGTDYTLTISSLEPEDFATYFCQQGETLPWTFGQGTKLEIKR next? 20.3

Can you handle B2 (antibody, human IgG1, kappa, L234A L235A, V domains shown, Humanized monoclonal antibody; also called anti-CD73 antibody B2) VH: EVQLVESGGGLVQPGGSLRLSCAASGLTFSSYVMSWVRQAPGKGLEWVSTISSGGVSTYYPDTVKGRFTISRDNSKNTLYLQMNSLRAEDTAVYYCAKRETARATGFAYWGQGTLVTVSA VL: DIQMTQSPSSLSASVGDRVTITCKASQSVSDDVTWYQQKPGKAPKLLIYYASNRYTGVPSRFSGSGSGTDFTFTISSVQPEDIATYYCQQDYSSPWTFGGGTKLEIKR next? 12.6

Can you handle C4 (antibody, human IgG1, kappa, L234A L235A, V domains shown, Humanized monoclonal antibody; also called C04; inventive anti-CD73 antibody C4) VH: QVQLVQSGAEVKKPGDSVKVSCKASGYTFTTYWMHWVRQAPGQGLEWMGAIYPGLSDTTYNQKFKGKVTMTRDTSTSTVYMKLSSLRSEDTAVYYCARLLDYAMDYWGQGTLVTVSS VL: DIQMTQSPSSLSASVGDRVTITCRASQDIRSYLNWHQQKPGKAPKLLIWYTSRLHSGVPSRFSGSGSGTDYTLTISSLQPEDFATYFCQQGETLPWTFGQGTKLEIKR next? 20.2
